Data provenance: the supplement of paper PMC10307832

tested on: NCI-H2009; experiment: relative viability (nuclei count vs DMSO), 5 days (fraction); higher = more cells survive; details: first compound 0.1265 µM
Threshold 0.7: relative viability strictly smaller gives y, otherwise n.

[Q] Below 0.7 on relative viability? Entry Clc1ccc(Nc2nnc(Cc3ccncc3)c3ccccc23)cc1 [Vatalanib] + Cc1cc(Nc2cc(N3CCN(C)CC3)nc(Sc3ccc(NC(=O)C4CC4)cc3)n2)n[nH]1 [Tozasertib] (partner 0.1 µM)
[A] y

---
[Q] Consider the molecule Clc1ccc(Nc2nnc(Cc3ccncc3)c3ccccc23)cc1 [Vatalanib] + O=C(CCCCCCC(=O)Nc1ccccc1)NO [Vorinostat] (partner 1 µM) . Is its relative viability strictly less than 0.7?
[A] n

[Q] Hi there! Is relative viability for Clc1ccc(Nc2nnc(Cc3ccncc3)c3ccccc23)cc1 [Vatalanib] + COc1cc2c(Oc3ccc(NC(=O)C4(C(=O)Nc5ccc(F)cc5)CC4)cc3F)ccnc2cc1OCCCN1CCOCC1 [Foretinib] (partner 0.25 µM) below 0.7, do you know?
[A] n

[Q] Lab log: compare recorded relative viability with 0.7; is it strictly lower for COc1cc(N2CCC(C(N)=O)CC2)ccc1Nc1nc(N)c(Cl)c(Nc2ccccc2S(=O)(=O)C(C)C)n1 [HG-5-88-01] + COc1cccc2cc(-c3nc([C@H]4CC[C@H](C(=O)O)CC4)n4ncnc(N)c34)[nH]c12 [OSI-027] (partner 0.5 µM) ?
[A] y

[Q] Field: below-cutoff. Rule: recorded relative viability strictly less than 0.7. Subject: C[C@@H]1CN(CC(=O)Nc2ccc3c(c2)Cc2cccc(-c4cc(=O)cc(N5CCOCC5)o4)c2S3)C[C@H](C)O1 + O=C(CCCCCCC(=O)Nc1ccccc1)NO [Vorinostat] (partner 1 µM)
[A] n
